Hey, just so you know, these numbers are from the RNAGym collection of RNA variant scans (doi:10.7554/elife.90254).

B1: LINE1-full (parent)
chain: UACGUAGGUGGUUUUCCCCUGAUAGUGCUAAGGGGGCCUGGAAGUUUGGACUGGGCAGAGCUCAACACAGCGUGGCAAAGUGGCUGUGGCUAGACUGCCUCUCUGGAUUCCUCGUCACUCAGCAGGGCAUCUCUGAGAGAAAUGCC

# Variants of: B1
# Protocol description: self-cleavage, relative activity (ratio to wild type); higher = more cleavage; in vitro, sequencing; the parent is a self-cleaving ribozyme
Endpoint: self-cleavage

Reference set (5 entries):
UACGUAGGUGGUUUUCCCCUGAUAGUGCUAAGGGGGCCUGGAAGUUUGGACUGGGCAGAGCUCAACACAGCGUGGCAAAGUGGCUGUGGCUAGACUGCCUCUCUGGAUUCCUCGUCACUCAGCAGGGCAUCUCUGAGAGAAGUGCC [A142G]	1.21
UACGUAGGUGGUUUUCCCCUGAUAGUGCUAAGGGGGCCUGGAAGUUUGGACUGGGCAGAGCUCAACACAGCGUGGCAAAGUGGCUGUGGCUAGACUGCCUCUCUUGAUUCCUCGUCACUCAGCAGGGCAUCUCUGAGAGUAAUGCC [G105U A140U]	1.53
UAGGUAGGUGGUUUUCCCCUGAUAGUGCUAAGGGGGCCUGGAAGUUUGGACUGGGCAGAGCUCAACACAGCGUGGCAAAGUGGCUGUGGCUAGACUGCCUCUCUGGAUUCCUCGUCACUCAGCAGGGCAUCACUGAGAGAAAUGCC [C3G U132A]	0.24
UACGUAGGUGGUUUUCCCCUGAUAGUGCUAAGGGGGCCUGGAGGUUUGGACUGGGCAGAACUCAACACAGCGUGGCAAAGUGGCUGUGGCUAGACUGCCUCUCUGGAUUCCUCGUCACUCAGCAGGGCAUCUCUGAGAGAAAUGCC [A43G G60A]	0.04
UACGUAGGUGGUUUUCCCCUGAUAGUGCUAAUGGGGCCUGGAAGUUUGGACUGGGCAGAGCUCAACACAGCGUGGCAAAGUGGCUGUGGCUAGACUGCCUCUCUGGAUUCCUCGUCACUCAGCAGGGCAACUCUGAGAGAAAUGCC [G32U U130A]	1.7

Please report self-cleavage for every entry that follows.
1. UACGUAGGUGGUUUUCCCCUGAUAGUGCUGAGGGGGCCUGGAAGUUUGGACUGGGCAGAGCUCAACACAGCGUGGCAAAGUGGCUGUGGCUAGACUGCCUCUCUGGAUUCCUCGUCACUCAGCAGGGCAUCUCUGUGAGAAAUGCC [A30G A136U]
2. UACGUGGGUGGUUUUCCCCUGAUAGUGCUAAGGGGGCCUGGAAGUUUGGACUGGGCAGAGCUCAACACAGCGUGGCAAGGUGGCUGUGGCUAGACUGCCUCUCUGGAUUCCUCGUCACUCAGCAGGGCAUCUCUGAGAGAAAUGCC [A6G A79G]
3. UACGUAGGUGGUUUUCCCCUGGUAGUGCUAAGGGGGCCUGGAAGUUUGGACUGGGCAGAGCUCAACACAGCGUGGUAAAGUGGCUGUGGCUAGACUGCCUCUCUGGAUUCCUCGUCACUCAGCAGGGCAUCUCUGAGAGAAAUGCC [A22G C76U]
4. UACGUAGGUGGUUUUCCCCUGAUAGUGCUAAGGGGGCCUGGAAGUUUGGACUGGGCAGAGCUCAACGCAGCGUGGCAAAGUGGCUGUGGCUAGACUGCCUCUCUGGAUUCCUCGUCACUCAGCGGGGCAUCUCUGAGAGAAAUGCC [A67G A124G]

Ans:
1: 0.55; 2: 0.8; 3: 1.39; 4: 0.26
